assay: Stability of siRNAs in human plasma in vitro (gel, ratio of the longest fragments RL); assay type: in vitro ADME; settings: 50% human plasma, 37° C., 2 h
Oligonucleotides are written 5' to 3', each unit as a sugar letter and its base; * is a phosphorothioate linkage, no mark a phosphodiester; rarer units and linkages stand in square brackets, end groups in braces. Plain capitals give the bases only. d = 2'-deoxy (DNA); m = 2'-O-methyl; r = 2'-OH (RNA); f = 2'-fluoro
Recorded metric: RL (ratio of the longest fragments) 2 h (%)
// note: answer is a bare numeric in %

Some solved entries appear below for comparison.
Substance	Measurement
CA2: alternating modifications; sense CmCUmUGmAGmGCmAUmACmUUmCAmAAmdTdT, antisense UmUUmGAmAGmUAmUGmCCmUCmAAmGGmdTdT (sense CCUUGAGGCAUACUUCAAATT; antisense UUUGAAGUAUGCCUCAAGGTT; sugars from the 5' end mrmrmrmrmrmrmrmrmrmdd, backbone not given here) [reference compound]	86.9
8d: sense CmCmUmUmGAGGCmAUmACmUmUmCmAAAdTdT, antisense UfUmUfGAAGUAUfGCCUfCAAGGdTdT (sense mCmCmUmUrGrArGrGmCrAmUrAmCmUmUmCrArArAdTdT; antisense fUmUfUrGrArArGrUrAfUrGrCrCfUrCrArArGrGdTdT)	78.2

--- query ---
Inquiry: Param item = 3d: sense CmCmUmUmGAGGCmAUmACmUmUmCmAAAdTdT, antisense UfUmUGAAGUfAUfGCCUfCAAGGdTdT (sense mCmCmUmUrGrArGrGmCrAmUrAmCmUmUmCrArArAdTdT; antisense fUmUrUrGrArArGfUrAfUrGrCrCfUrCrArArGrGdTdT) ; retrieve measured RL (ratio of the longest fragments) 2 h.
Reply text: 96.6

====

assay: Stability of siRNAs in human plasma in vitro (gel, ratio of the longest fragments RL); assay type: in vitro ADME; conditions: 50% human plasma, 37° C., 8 h
Oligonucleotides are written 5' to 3', each unit as a sugar letter and its base; * is a phosphorothioate linkage, no mark a phosphodiester; rarer units and linkages stand in square brackets, end groups in braces. Plain capitals give the bases only. d = 2'-deoxy (DNA); m = 2'-O-methyl; r = 2'-OH (RNA); f = 2'-fluoro
Each record gets a class by RL (ratio of the longest fragments) 8 h: low range = under 80%, mid range = from 80% up to 90%, high range = 90% and over

Substance	Class name
X2M2(S−−): sense CmCmUmUmGAGGCmAUmACmUmUmCmAAAdTdT, antisense UfUmUfGAAGUfAUGCCUfCAAGGdTdT (as printed in the source, key not given here)	high range

Inquiry: Classify this substance: 3d: sense CmCmUmUmGAGGCmAUmACmUmUmCmAAAdTdT, antisense UfUmUGAAGUfAUfGCCUfCAAGGdTdT (sense mCmCmUmUrGrArGrGmCrAmUrAmCmUmUmCrArArAdTdT; antisense fUmUrUrGrArArGfUrAfUrGrCrCfUrCrArArGrGdTdT)
Reply text: mid range

Inquiry: Band for the recorded RL (ratio of the longest fragments) 8 h of 14d: sense CmCmUmUmGAGGCmAUmACmUmUmCmAAAdTdT, antisense UfUmUfGAAGUfAUfGCCUCAAGGdTdT (sense mCmCmUmUrGrArGrGmCrAmUrAmCmUmUmCrArArAdTdT; antisense fUmUfUrGrArArGfUrAfUrGrCrCrUrCrArArGrGdTdT) ?
Reply text: mid range

Inquiry: Class (by measured RL (ratio of the longest fragments) 8 h) for 8d: sense CmCmUmUmGAGGCmAUmACmUmUmCmAAAdTdT, antisense UfUmUfGAAGUAUfGCCUfCAAGGdTdT (sense mCmCmUmUrGrArGrGmCrAmUrAmCmUmUmCrArArAdTdT; antisense fUmUfUrGrArArGrUrAfUrGrCrCfUrCrArArGrGdTdT)
Reply text: low range

====

assay: Stability of siRNAs in human plasma in vitro (gel, ratio of the longest fragments RL); type: in vitro ADME; conditions: 50% human plasma, 37° C., 0 h
Oligonucleotides are written 5' to 3', each unit as a sugar letter and its base; * is a phosphorothioate linkage, no mark a phosphodiester; rarer units and linkages stand in square brackets, end groups in braces. Plain capitals give the bases only. d = 2'-deoxy (DNA); m = 2'-O-methyl; r = 2'-OH (RNA); f = 2'-fluoro
Recorded metric: RL (ratio of the longest fragments) 0 h (%)
Number in %, nothing else.

// solved cases for RL (ratio of the longest fragments) 0 h follow
Substance	RL (ratio of the longest fragments) 0 h, %
A4: siRNA of CN102140461B; sense CmCmUmUmGAGGCmAUmACmUmUmCmAAAdTdT, antisense UfUmUfGAAGUfAUfGCCUfCAAGGdTdT (sense CCUUGAGGCAUACUUCAAATT; antisense UUUGAAGUAUGCCUCAAGGTT; sense: DNA at T, 2'-O-methyl at CU, RNA at AG, backbone not given here; antisense: sugars from the 5' end fmfrrrrfrfrrrfrrrrrdd, backbone not given here) [reference compound]	100.0
X2M2(S−−): sense CmCmUmUmGAGGCmAUmACmUmUmCmAAAdTdT, antisense UfUmUfGAAGUfAUGCCUfCAAGGdTdT (as printed in the source, key not given here)	100.0
14d: sense CmCmUmUmGAGGCmAUmACmUmUmCmAAAdTdT, antisense UfUmUfGAAGUfAUfGCCUCAAGGdTdT (sense mCmCmUmUrGrArGrGmCrAmUrAmCmUmUmCrArArAdTdT; antisense fUmUfUrGrArArGfUrAfUrGrCrCrUrCrArArGrGdTdT)	100.0

Inquiry: Please give the measured RL (ratio of the longest fragments) 0 h for this substance: 3d: sense CmCmUmUmGAGGCmAUmACmUmUmCmAAAdTdT, antisense UfUmUGAAGUfAUfGCCUfCAAGGdTdT (sense mCmCmUmUrGrArGrGmCrAmUrAmCmUmUmCrArArAdTdT; antisense fUmUrUrGrArArGfUrAfUrGrCrCfUrCrArArGrGdTdT)
Reply text: 100.0

Inquiry: Give the measured RL (ratio of the longest fragments) 0 h of 8d: sense CmCmUmUmGAGGCmAUmACmUmUmCmAAAdTdT, antisense UfUmUfGAAGUAUfGCCUfCAAGGdTdT (sense mCmCmUmUrGrArGrGmCrAmUrAmCmUmUmCrArArAdTdT; antisense fUmUfUrGrArArGrUrAfUrGrCrCfUrCrArArGrGdTdT) .
Reply text: 100.0

Inquiry: Fill in: RL (ratio of the longest fragments) 0 h of 1d: sense CmCmUmUmGAGGCmAUmACmUmUmCmAAAdTdT, antisense UUmUfGAAGUfAUfGCCUfCAAGGdTdT (sense mCmCmUmUrGrArGrGmCrAmUrAmCmUmUmCrArArAdTdT; antisense rUmUfUrGrArArGfUrAfUrGrCrCfUrCrArArGrGdTdT) is ___
Reply text: 100.0

Inquiry: Need RL (ratio of the longest fragments) 0 h of 2d: sense CmCmUmUmGAGGCmAUmACmUmUmCmAAAdTdT, antisense UfUUfGAAGUfAUfGCCUfCAAGGdTdT (sense mCmCmUmUrGrArGrGmCrAmUrAmCmUmUmCrArArAdTdT; antisense fUrUfUrGrArArGfUrAfUrGrCrCfUrCrArArGrGdTdT) , thanks.
Reply text: 100.0

Inquiry: For CA2: alternating modifications; sense CmCUmUGmAGmGCmAUmACmUUmCAmAAmdTdT, antisense UmUUmGAmAGmUAmUGmCCmUCmAAmGGmdTdT (sense CCUUGAGGCAUACUUCAAATT; antisense UUUGAAGUAUGCCUCAAGGTT; sugars from the 5' end mrmrmrmrmrmrmrmrmrmdd, backbone not given here) [reference compound] , what is its reported RL (ratio of the longest fragments) 0 h?
Reply text: 100.0

Inquiry: Report RL (ratio of the longest fragments) 0 h for X2M2(S++): sense CmCmUmUmGAGGCmAUmACmUmUmCmAAAdT-s-dT, antisense UfUmUfGAAGUfAUGCCUfCAAGGdT-s-dT (sense CCUUGAGGCAUACUUCAAAT; antisense UUUGAAGUAUGCCUCAAGGT; chemistry not fully specified) please.
Reply text: 100.0

====

test: Stability of siRNAs in human plasma in vitro (gel, ratio of the longest fragments RL); format: in vitro ADME; settings: 50% human plasma, 37° C., 48 h
Oligonucleotides are written 5' to 3', each unit as a sugar letter and its base; * is a phosphorothioate linkage, no mark a phosphodiester; rarer units and linkages stand in square brackets, end groups in braces. Plain capitals give the bases only. d = 2'-deoxy (DNA); m = 2'-O-methyl; r = 2'-OH (RNA); f = 2'-fluoro
Lab note: compare RL (ratio of the longest fragments) 48 h against 80%. Equal or greater, write True. Smaller, write False.

# example entries with known answers
Substance	Class name
X2M2(S++): sense CmCmUmUmGAGGCmAUmACmUmUmCmAAAdT-s-dT, antisense UfUmUfGAAGUfAUGCCUfCAAGGdT-s-dT (sense CCUUGAGGCAUACUUCAAAT; antisense UUUGAAGUAUGCCUCAAGGT; chemistry not fully specified)	True
14d: sense CmCmUmUmGAGGCmAUmACmUmUmCmAAAdTdT, antisense UfUmUfGAAGUfAUfGCCUCAAGGdTdT (sense mCmCmUmUrGrArGrGmCrAmUrAmCmUmUmCrArArAdTdT; antisense fUmUfUrGrArArGfUrAfUrGrCrCrUrCrArArGrGdTdT)	True

Inquiry: Hello, I need to know if 1d: sense CmCmUmUmGAGGCmAUmACmUmUmCmAAAdTdT, antisense UUmUfGAAGUfAUfGCCUfCAAGGdTdT (sense mCmCmUmUrGrArGrGmCrAmUrAmCmUmUmCrArArAdTdT; antisense rUmUfUrGrArArGfUrAfUrGrCrCfUrCrArArGrGdTdT) has measured RL (ratio of the longest fragments) 48 h not below 80%. Thanks!
Reply text: False

Inquiry: Decide: RL (ratio of the longest fragments) 48 h of 3d: sense CmCmUmUmGAGGCmAUmACmUmUmCmAAAdTdT, antisense UfUmUGAAGUfAUfGCCUfCAAGGdTdT (sense mCmCmUmUrGrArGrGmCrAmUrAmCmUmUmCrArArAdTdT; antisense fUmUrUrGrArArGfUrAfUrGrCrCfUrCrArArGrGdTdT) >= 80%?
Reply text: False

Inquiry: // inclusive: RL (ratio of the longest fragments) 48 h at least 80%? input: X2M2(S−−): sense CmCmUmUmGAGGCmAUmACmUmUmCmAAAdTdT, antisense UfUmUfGAAGUfAUGCCUfCAAGGdTdT (as printed in the source, key not given here)
Reply text: True
